The values you see were collected from patent US9409952B2.

# assay-explanation: PAMPA (parallel artificial membrane permeability assay)
# Type: in vitro ADME
# reported-conditions: PAMPA; membrane permeation rate (Pe); 50 mM MOPSO buffer pH 6.5 with 5.0% glycocholic acid, 37° C., 18 hours; read-out: iPAMPA Pe
# Procedure: 4 μL of a phospholipid-organic solvent solution composed of 10% (w/v) of egg lecithin, 0.5% (w/v) of cholesterol and dodecane (all purchased from Fluka) was added to a Millipore 96-well membrane filter (hydrophobic PVDF (polyvinylidene difluoride), pore size 0.45 microm) (purchased from Millipore Japan) to make an artificial phospholipid membrane. […]
Starred links: 1 amine or outer side, 2 acyl side, 3 side chain; linkers in the order of their positions; H or OH if unused. Positions of bridges follow the written chain, without caps; N, C: chain ends. Non-standard residues stand in square brackets, D forms with d. Residues, ends and D or L forms follow the SMILES beside them. *: point of attachment. Phe(3-(CH2)4CO) = O=C([C@H](Cc1cccc(CCCCC(=O)[*:3])c1)N[*:1])[*:2]; NMePhe(3-Cl) = CN[C@@H](Cc1cccc(Cl)c1)C(=O)O; NMeF = CN[C@@H](Cc1ccccc1)C(=O)O; NMeGABA = CN(CCCC(=O)[*:2])[*:1]; NMeI = CC[C@H](C)[C@H](NC)C(=O)O; Aoc(2) = CCCCCC[C@H](N)C(=O)O; NMeL = CN[C@@H](CC(C)C)C(=O)O; NMeV = CN[C@H](C(=O)O)C(C)C; NMeS = CN[C@@H](CO)C(=O)O; NMeA = CN[C@@H](C)C(=O)O; Piperidide = C1CCN(*)CC1; β3hA = C[C@H](N)CC(=O)O; Abu = CC[C@H](N)C(=O)O; Sar = CNCC(=O)O; tBu = CC(C)(C)*
Kindly return Condition met if reported Papp at 18 hours, 50 µM is no lower than 20 ×10⁻⁶ cm/s; return Condition not met if it is lower.

INSERT INTO assay_data (molecule, answer_label) VALUES
  ('CC[C@H](C)[C@H](NC(=O)[C@H](CC(C)C)N(C)C(=O)[C@@H]1CCCN1C(=O)[C@@H](NC(=O)[C@H](C)N(C)C(=O)[C@@H]1CC(=O)N[C@@H](C)C(=O)N(C)[C@@H](CC(C)C)C(=O)N(C)[C@@H](Cc2cccc(Cl)c2)C(=O)N[C@@H](C(C)C)C(=O)N(C)[C@@H](CC(C)C)C(=O)N(C)[C@@H](CC(C)C)C(=O)N[C@@H]([C@@H](C)O)C(=O)N[C@@H](Cc2ccccc2)C(=O)N1)C(C)C)C(=O)N1CCCCC1 [DP-936] (A[NMeL][NMePhe(3-Cl)]V[NMeL][NMeL]TFD[NMeA]VP[NMeL]I-Piperidide; lactam N-9)', 'Condition not met'),
  ('CC(C)C[C@H]1C(=O)N[C@H](C(=O)N(C)[C@@H](Cc2ccccc2)C(=O)N(C)[C@@H](Cc2ccccc2)C(=O)N[C@@H](C)C(=O)N2CCCCC2)CC(=O)N(C)[C@@H](C)C(=O)N(C)[C@@H](Cc2ccccc2)C(=O)N[C@@H]([C@@H](C)O)C(=O)N(C)[C@@H](C)C(=O)N(C)[C@@H](CC(C)C)C(=O)N(C)[C@@H](CC(C)C)C(=O)N[C@@H](C(C)C)C(=O)N1C [DP-211] ([NMeA][NMeF]T[NMeA][NMeL][NMeL]V[NMeL]D[NMeF][NMeF]A-Piperidide; lactam N-9)', 'Condition not met'),
  ('CC(C)C[C@H]1C(=O)N(C)[C@@H](C)C(=O)N(C)[C@@H](CC(C)C)C(=O)N[C@H](C(=O)N(C)[C@@H](Cc2ccccc2)C(=O)N(C)[C@@H](Cc2ccccc2)C(=O)N[C@@H](C)C(=O)N2CCCCC2)CC(=O)N(C)CCCC(=O)N[C@@H]([C@@H](C)O)C(=O)N(C)[C@@H](Cc2ccccc2)C(=O)N(C)[C@@H](CC(C)C)C(=O)N[C@@H](C(C)C)C(=O)N1C [DP-403] ([NMeGABA]T[NMeF][NMeL]V[NMeL][NMeA][NMeL]D[NMeF][NMeF]A-Piperidide; lactam N-9)', 'Condition not met'),
  ('CC[C@H](C)[C@H]1C(=O)N[C@@H](CC(C)C)C(=O)N(C)[C@@H](C)C(=O)N(C)[C@@H](Cc2ccccc2)C(=O)NCC(=O)N[C@@H]([C@@H](C)O)C(=O)N[C@@H](Cc2ccccc2)C(=O)N(C)[C@@H](CC(C)C)C(=O)N2CCC[C@H]2C(=O)N[C@H](C(=O)N2CCCCC2)Cc2cccc(c2)CCCCC(=O)N[C@@H](CC(C)C)C(=O)N1C [DP-877] (L[NMeI]L[NMeA][NMeF]GTF[NMeL]P[Phe(3-(CH2)4CO)]-Piperidide; lactam N-11)', 'Condition not met'),
  ('CC(C)C[C@H]1C(=O)N[C@H](C(=O)N(C)[C@@H](Cc2ccccc2)C(=O)N[C@@H](C)C(=O)N2CCCCC2)CC(=O)N(C)[C@@H](C)C(=O)N[C@@H]([C@@H](C)O)C(=O)N(C)[C@@H](C)C(=O)N(C)[C@@H](CC(C)C)C(=O)N[C@@H](C(C)C)C(=O)N(C)[C@@H](Cc2ccccc2)C(=O)N[C@@H](Cc2ccccc2)C(=O)N1C [DP-386] ([NMeA]T[NMeA][NMeL]V[NMeF]F[NMeL]D[NMeF]A-Piperidide; lactam N-9)', 'Condition met');

Papp at 18 hours, 50 µM >= 20 ×10⁻⁶ cm/s for CCCCCC[C@@H]1NC(=O)[C@H](CO)N(C)C(=O)[C@H](CC(C)C)N(C)C(=O)[C@H](CC(C)C)N(C)C(=O)[C@H](CC(C)C)N(C)C(=O)[C@@H](C)NC(=O)[C@H](CC)NC(=O)[C@H](CC(C)C)N(C)C(=O)C[C@H](C)NC(=O)[C@H](CC(C)C)N(C)C(=O)CN(C)C1=O [DP-645] (cyclo([Abu][dA][NMeL][NMeL][NMeL][NMeS][Aoc(2)][Sar][NMeL][β3hA][NMeL])) ? Condition met

Continue with CC[C@H](C)[C@@H]1NC(=O)[C@H](C)N(C)C(=O)[C@H]([C@@H](C)O)NC(=O)[C@H](C(C)C)N(C)C(=O)[C@H](CC(C)C)NC(=O)[C@H](CC(C)C)N(C)C(=O)CN(C)C(=O)C[C@@H](C(=O)N2CCCCC2)NC(=O)[C@H](C)NC(=O)[C@H](Cc2ccccc2)NC(=O)[C@H](Cc2ccccc2)N(C)C1=O [DP-245] ([Sar][NMeL]L[NMeV]T[NMeA]I[NMeF]FAD-Piperidide; lactam N-11) Condition met

Continue with CC[C@H](C)[C@@H]1NC(=O)[C@H](CC(C)C)N(C)C(=O)CN(C)C(=O)[C@H]([C@@H](C)O)NC(=O)[C@H](C)N(C)C(=O)C[C@@H](C(=O)N(C)[C@@H](CC(C)C)C(=O)N[C@@H](C)C(=O)N2CCCCC2)NC(=O)[C@H](CC(C)C)N(C)C(=O)[C@H](Cc2ccccc2)N(C)C(=O)[C@H](CC(C)C)N(C)C1=O [DP-663] ([NMeA]T[Sar][NMeL]I[NMeL][NMeF][NMeL]D[NMeL]A-Piperidide; lactam N-9) Condition met

Continue with CC(C)C[C@H]1C(=O)NCC(=O)N[C@H](C(=O)N2CCCCC2)CC(=O)N[C@H](C(C)C)C(=O)N[C@@H]([C@@H](C)O)C(=O)N(C)[C@@H](C)C(=O)N(C)[C@@H](Cc2ccccc2)C(=O)N(C)[C@@H](Cc2ccccc2)C(=O)N[C@@H](COC(C)(C)C)C(=O)N1C [DP-176] ([dV]T[NMeA][NMeF][NMeF]S(tBu)[NMeL]GD-Piperidide; lactam N-9) Condition met

###

# assay-explanation: Metabolic stability in human hepatic microsome
# Type: in vitro ADME
# reported-conditions: microsomes, pH 7.4; human hepatic microsome, NADPH(+); read-out: CL NADPH(+)
Positions of bridges follow the written chain, without caps; N, C: chain ends. Non-standard residues stand in square brackets, D forms with d. Residues, ends and D or L forms follow the SMILES beside them. *: point of attachment. NMeF = CN[C@@H](Cc1ccccc1)C(=O)O; NMeL = CN[C@@H](CC(C)C)C(=O)O; NMeV = CN[C@H](C(=O)O)C(C)C; NMeA = CN[C@@H](C)C(=O)O; Piperidide = C1CCN(*)CC1; dNMeA = CN[C@H](C)C(=O)O; Sar = CNCC(=O)O
readout-label: microsomal CLint at 1 uM
State the result as a value with its unit after it.

Could you share which microsomal CLint at 1 uM value was measured for CC(C)C[C@H]1C(=O)N(C)[C@@H](C)C(=O)N(C)[C@@H](C(C)C)C(=O)N[C@@H](C)C(=O)N[C@H](C(=O)N(C)[C@@H](Cc2ccccc2)C(=O)N(C)[C@@H](Cc2ccccc2)C(=O)N[C@@H](C)C(=O)N2CCCCC2)CC(=O)N(C)[C@H](C)C(=O)N(C)CC(=O)N[C@@H]([C@@H](C)O)C(=O)N(C)[C@@H](C)C(=O)N[C@@H](Cc2ccccc2)C(=O)N1C [DP-507] ([dNMeA][Sar]T[NMeA]F[NMeL][NMeA][NMeV]AD[NMeF][NMeF]A-Piperidide; lactam N-10) ? 17 µL/min/mg
